pIC50: −log10 of the molar value.
// merged dataset of pIC50 values, system = cGMP-inhibited 3',5'-cyclic phosphodiesterase 3A (Homo sapiens), multiple refs
Sequence (Q14432 whole entry): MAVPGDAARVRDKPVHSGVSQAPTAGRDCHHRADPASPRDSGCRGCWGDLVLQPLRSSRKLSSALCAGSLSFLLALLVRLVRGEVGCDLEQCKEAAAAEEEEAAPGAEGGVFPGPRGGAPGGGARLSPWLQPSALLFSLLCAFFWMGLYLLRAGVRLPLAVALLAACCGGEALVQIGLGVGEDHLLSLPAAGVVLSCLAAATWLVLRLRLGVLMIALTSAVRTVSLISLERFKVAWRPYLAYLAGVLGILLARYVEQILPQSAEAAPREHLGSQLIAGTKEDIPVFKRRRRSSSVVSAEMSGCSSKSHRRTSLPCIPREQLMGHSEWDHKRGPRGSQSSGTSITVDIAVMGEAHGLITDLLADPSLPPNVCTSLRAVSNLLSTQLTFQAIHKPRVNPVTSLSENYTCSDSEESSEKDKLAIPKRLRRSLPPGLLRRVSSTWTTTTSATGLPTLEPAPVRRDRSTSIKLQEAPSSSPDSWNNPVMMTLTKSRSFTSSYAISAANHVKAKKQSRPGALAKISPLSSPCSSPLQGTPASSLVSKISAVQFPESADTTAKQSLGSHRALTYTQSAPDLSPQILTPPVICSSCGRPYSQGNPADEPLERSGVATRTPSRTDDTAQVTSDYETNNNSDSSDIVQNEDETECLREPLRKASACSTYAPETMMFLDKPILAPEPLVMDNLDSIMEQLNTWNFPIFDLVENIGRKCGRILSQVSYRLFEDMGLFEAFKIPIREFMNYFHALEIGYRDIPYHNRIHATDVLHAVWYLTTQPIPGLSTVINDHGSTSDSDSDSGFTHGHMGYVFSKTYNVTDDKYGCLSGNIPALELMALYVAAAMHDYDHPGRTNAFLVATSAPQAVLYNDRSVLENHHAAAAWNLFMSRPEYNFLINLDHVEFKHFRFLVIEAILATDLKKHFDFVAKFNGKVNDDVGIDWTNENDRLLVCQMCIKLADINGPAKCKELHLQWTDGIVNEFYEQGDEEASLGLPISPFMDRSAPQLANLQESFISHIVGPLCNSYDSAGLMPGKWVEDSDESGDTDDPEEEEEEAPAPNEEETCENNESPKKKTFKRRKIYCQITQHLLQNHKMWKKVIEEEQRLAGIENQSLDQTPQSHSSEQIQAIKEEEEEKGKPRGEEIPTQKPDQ
Quick rule for you: pIC50 at 6 or higher means y, lower means n.

>>> print(df.to_string())
                                   compound  label
0  COc1ccc(C2=NN(CCCCOc3ccc(C4=NNC(=O)CC4)c(F)c3F)C(=O)C2(C)C)n2cc(C(F)(F)F)nc12      y
1  COc1ccc(C2=NN(CCCCCOc3ccc(C4=NNC(=O)CC4C)cc3)C(=O)CC2C)c2cc(C(F)(F)F)nn12 (centres undefined)      y
2  OCC1CCN(c2cccnc2Oc2ccc(Nc3nc4ccccc4[nH]3)cc2)CC1      n
3  O=c1nc(N2CCOCC2)oc2c(-c3cccs3)c(OCc3ccccn3)ccc12      n
4  Cn1nc(-c2ccc(Cl)cc2)s/c1=N\c1c(O)cccc1C(=O)O      n

Ask | Given the entry Cn1nc(-c2ccc(Cl)cc2)s/c1=N\c1ccc(O)cc1 , answer whether its pIC50 meets or surpasses 6.
Reply | n

Ask | Check CC1(C)C(=O)NN=C1c1ccc(NC2=C(Cc3cccc(C#N)c3)C(=O)CCC2)cc1F too.
Reply | y

Ask | Check Cc1cc(=O)[nH]c2ccc(OCc3cccc(C(=O)N4CCN(CCO)CC4)c3)cc12 too.
Reply | n
